Attribution: paper PMC7158045

measured target: ZmDRIK1-R187-P492 (Zea mays, UniProt C0P4K9)
Construct: kinase domain, R187-P492
Sequence (C0P4K9 1-514): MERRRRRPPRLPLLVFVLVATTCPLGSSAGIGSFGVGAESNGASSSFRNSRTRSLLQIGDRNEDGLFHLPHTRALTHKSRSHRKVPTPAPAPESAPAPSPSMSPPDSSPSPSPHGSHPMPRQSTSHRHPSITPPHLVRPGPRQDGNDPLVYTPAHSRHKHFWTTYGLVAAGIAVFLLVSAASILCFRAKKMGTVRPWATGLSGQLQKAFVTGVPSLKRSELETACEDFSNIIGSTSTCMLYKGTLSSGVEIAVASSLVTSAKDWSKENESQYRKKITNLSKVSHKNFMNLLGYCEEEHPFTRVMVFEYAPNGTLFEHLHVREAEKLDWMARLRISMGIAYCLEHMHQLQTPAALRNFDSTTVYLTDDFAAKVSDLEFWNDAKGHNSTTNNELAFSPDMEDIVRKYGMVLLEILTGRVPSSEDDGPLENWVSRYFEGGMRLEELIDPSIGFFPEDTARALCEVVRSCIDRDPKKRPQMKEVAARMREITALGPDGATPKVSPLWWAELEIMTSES
protocol: biochemical
measurement setup: read-out: dTm B, DSF, Boltzmann fit, 0.1% DMSO
Task for the reader: assign each of the following compounds its reported ΔTm at 10 µM.
Answers are plain numbers, in °C.

The following compounds have reported results that may help.
- smiles entry: "CC(C)(O)CC(=O)NCCn1ccc2ncnc(Nc3ccc(Oc4cccc(C(F)(F)F)c4)c(Cl)c3)c21"
  measured target: "ZmDRIK1-R187-P492 (Zea mays, UniProt C0P4K9)"
  result: 0.579
- smiles entry: "c1cncc(CN2CCC(n3ncc4c(N5CCOCC5)nc(-c5ccc6[nH]ccc6c5)nc43)CC2)c1"
  measured target: "ZmDRIK1-R187-P492 (Zea mays, UniProt C0P4K9)"
  result: -0.498
- smiles entry: "Cc1ccc(C(=O)Nc2ccc(CN3CCN(C)CC3)c(C(F)(F)F)c2)cc1C#Cc1cnc2[nH]ncc2c1"
  measured target: "ZmDRIK1-R187-P492 (Zea mays, UniProt C0P4K9)"
  result: -0.305
- smiles entry: "O=C(Nc1cccc(Nc2ncc(Br)c(NCCc3cnc[nH]3)n2)c1)N1CCCC1"
  measured target: "ZmDRIK1-R187-P492 (Zea mays, UniProt C0P4K9)"
  result: -0.165
- smiles entry: "CN(C)Cc1cccc(N/C(=C2\\C(=O)Nc3cc(C(N)=O)ccc32)c2ccccc2)c1"
  measured target: "ZmDRIK1-R187-P492 (Zea mays, UniProt C0P4K9)"
  result: -0.00337
- smiles entry: "CCN1CCN(C(=O)Cc2ccc(Nc3ncc(F)c(Nc4ccc(C(=O)Nc5ccccc5Cl)cc4)n3)cc2)CC1"
  measured target: "ZmDRIK1-R187-P492 (Zea mays, UniProt C0P4K9)"
  result: -0.457
- smiles entry: "O=C(Nc1nc2cccc(-c3ccc(CN4CCS(=O)(=O)CC4)cc3)n2n1)C1CC1"
  measured target: "ZmDRIK1-R187-P492 (Zea mays, UniProt C0P4K9)"
  result: -0.607
- smiles entry: "CNC(=O)c1ccccc1Nc1nc(Nc2ccc(N3CCOCC3)cc2OC)ncc1Cl"
  measured target: "ZmDRIK1-R187-P492 (Zea mays, UniProt C0P4K9)"
  result: -0.231

Dear colleague, could you please provide ΔTm at 10 µM for the compounds listed below?
1. Cn1cc(-c2ccc3nnc(C(F)(F)c4ccc5ncccc5c4)n3n2)cn1
2. CN1CCN(c2cccc(Nc3nc4c(-c5ccc(S(C)(=O)=O)cc5)cccn4n3)c2)CC1
3. CCn1c(-c2nonc2N)nc2c(C#CC(C)(C)O)ncc(OC[C@H]3CCCNC3)c21

1: -0.343; 2: -0.284; 3: -0.153

Give ΔTm at 10 µM for each of the items listed below.
1. CN(C)Cc1cccc(N=C(c2ccccc2)c2c(O)[nH]c3cc(C(=O)N(C)C)ccc23)c1
2. CCCCOc1c(C(=O)c2c(F)cc(C)cc2F)c[nH]c2nncc1-2
3. O=C(Nc1ccc(OC(F)(F)F)cc1)c1sccc1NCc1ccnc2ccccc12
4. CN(C)C/C=C/C(=O)Nc1cc2c(Nc3ccc(F)c(Cl)c3)ncnc2cc1O[C@H]1CCOC1
5. Cc1[nH]nc2ccc(-c3cncc(OC[C@@H](N)Cc4ccccc4)c3)cc12

1. -0.0835
2. -0.249
3. -3.67
4. -0.346
5. -0.417
